- Procedure text: chemical genetic growth profiling, strain panel (AID 1159580);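 further: tested at 20 µM; growth read once vehicle control cultures reached saturation at 30 °C; 1 = growth at the plate median or of vehicle wells; lower values mean less growth of the strain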
- Protocol conditions: S. cerevisiae deletion strains, growth OD, locus YBL061C, strain skt5, active compounds read low
Out of some 5,500 compounds screened, about 2,000 (36%) were called active. About 18% were inconclusive and are not listed. The list shows a part of the results.
Outcome measure: normalized growth
Write no unit; give the number alone.

COc1cccc2c1CCC1CC(=O)CCC21C (centres undefined) ... 1
NC(=O)N1c2ccccc2CC(=O)c2ccccc21 ... 0.994
CC(=O)O[C@H]1C(=O)[C@@]2(C)C([C@H](OC(=O)c3ccccc3)[C@]3(O)C[C@H](O)C(C)=C1C3(C)C)[C@]1(OC(C)=O)CO[C@@H]1C[C@@H]2O (some centres undefined) ... 1.02

Next up:
Item under review: CC(=O)O[C@H]1C(=O)[C@@]2(C)C([C@H](OC(=O)c3ccccc3)[C@]3(O)C[C@H](OC(=O)[C@H](O)[C@@H](NC(=O)c4ccccc4)c4ccccc4)C(C)=C1C3(C)C)[C@]1(OC(C)=O)CO[C@@H]1C[C@@H]2O (some centres undefined) . Reported normalized growth?
1.01

Where do the numbers come from? From PubChem BioAssay AID1159580.
